Test system: HEK293 cells
testProtocol: Toxicity to HEK293 cells (MTT)
Assay type: cell-based
protocolConditions: HEK293, 500 μM, 12 hours, MTT 1.5 hours, 570 nm
experimentalEndpoint: 500 μM absorbance
Hey, just send me the number, nothing else.

Field: example entries. Status: answers known.
- compound: "NC(=O)c1ccc[n+]([C@@H]2O[C@H](COP(=O)([O-])OP(=O)(O)OC[C@H]3O[C@@H](n4cnc5c(N)ncnc54)[C@H](O)[C@@H]3O)[C@@H](O)C2(F)F)c1 [gem-diF-NAD, 2′-deoxy-2′,2′-difluoro-NAD^+]"
  500 μM absorbance: 1.556
- compound: "NC(=O)c1ccc[n+]([C@@H]2O[C@H](COP(=O)([O-])O)C(O)C2(F)F)c1 (some centres unmarked) [gem-diF-NMN]"
  500 μM absorbance: 0
- compound: "NC(=O)c1ccc[n+]([C@@H]2O[C@H](COP(=O)([O-])OP(=O)(O)OC[C@H]3O[C@@H](n4cnc5c(N)ncnc54)[C@H](O)[C@@H]3O)[C@@H](O)[C@@H]2F)c1 [ara-F-NAD, 2′-deoxy-2′-fluoro-arabino-NAD^+]"
  500 μM absorbance: 1.302
- compound: "NC(=O)c1ccc[n+]([C@@H]2O[C@H](COP(=O)([O-])O)C(O)C2F)c1 (some centres unmarked) [ara-F-NMN]"
  500 μM absorbance: 0
- compound: "NC(=O)c1ccc[n+]([C@@H]2O[C@H](COP(=O)([O-])O)C(O)C2F)c1 (some centres unmarked) [ribo-F-NMN]"
  500 μM absorbance: 0.9845

Using the record for NC(=O)c1ccc[n+]([C@@H]2O[C@H](CO)C(O)[C@@H]2F)c1 (some centres unmarked) [ribo-F-NR] , state its measured 500 μM absorbance.
0.0015

Using the record for NC(=O)c1ccc[n+]([C@@H]2O[C@H](CO)C(O)C2F)c1 (some centres unmarked) [ara-F-NR] , state its measured 500 μM absorbance.
1.25

Using the record for NC(=O)c1ccc[n+]([C@@H]2O[C@H](CO)[C@@H](O)C2(F)F)c1 [gem-diF-NR] , state its measured 500 μM absorbance.
1.43
